- System: Pseudomonas aeruginosa
- Assay protocol: Growth inhibition of Pseudomonas aeruginosa PA14 at 100 uM after 24 hrs
Result type: growth inhibition (GI)

>>> result("CCCCCCC[C@@H](O)CC(=O)CCc1ccc(O)c(OC)c1")
"Non-Toxic"
>>> result("CCCCCCCCC(O)CC(=O)CCc1ccc(O)c(OC)c1 (centres undefined)")
"Toxic"
>>> result("CCCCCCC[C@@H](O)CC(=O)/C=C/c1ccc(O)c(OC)c1")
"Non-Toxic"
>>> result("CCCCCCCCCC(O)CC(=O)CCc1ccc(O)c(OC)c1 (centres undefined)")
"Toxic"

----------
- System: Pseudomonas aeruginosa
- Assay protocol: Antagonist activity at Pseudomonas aeruginosa LasR expressed in Escherichia coli DH5alpha assessed as inhibition of protein interaction with OdDHL at 1 to 10 uM after 1.5 hrs by beta-galactosidase reporter gene assay
Calls of active or inactive are those of the source. The rule behind the calls is not given here.
Result type: inhibition

>>> result("CCCCCC(O)CC(=O)CCc1ccc(O)c(OC)c1 (stereo not drawn)")
"Active"
>>> result("CCCCCCCC(O)CC(=O)CCc1ccc(OC)c(OC)c1 (stereo not drawn)")
"Active"
>>> result("CCCCCCCC(O)CC(=O)CCc1cccc(OC)c1 (stereo not drawn)")
"Active"
